Can you tell me Ki KOR/Ki MOR for the items I'm about to list?
- Target Or Test System: KOR (Cavia porcellus)
- Construct: from tissue; host or cells: guinea pig cerebellum preparation
- Measurement Description: Opioid receptor competitive binding assay, KOR (3H-U-69,593)
- Parameters: species or system guinea pig
- Measurement Setup: Table 12; selectivity for MOR versus KOR

Problem: Query (compound): NC(Cc1ccc(O)cc1)C(O)C/C=C/C(O)C(Cc1ccccc1)C(=O)NC(CO)Cc1ccccc1 (single isomer, unassigned) [(S,R,R,R)-11] ; field requested: Ki KOR/Ki MOR
Result: 120

Problem: Query (compound): C=CC(O)C(Cc1ccccc1)NC(=O)C(Cc1ccccc1)C(O)/C=C/CC(O)C(N)Cc1ccc(O)cc1 (single isomer, unassigned) [(S,R,R,R)-12] ; field requested: Ki KOR/Ki MOR
Result: 26

Problem: Query (compound): NC(Cc1ccc(O)cc1)C(O)C/C=C/C(O)C(Cc1ccccc1)C(=O)NC(CO)Cc1ccccc1 (single isomer, unassigned) [(S,S,R,R)-11] ; field requested: Ki KOR/Ki MOR
Result: 180

Problem: Query (compound): NC(Cc1ccc(O)cc1)C(O)C/C=C/C(O)C(Cc1ccccc1)C(=O)NCCc1ccccc1 (single isomer, unassigned) [(S,S,R,R)-10] ; field requested: Ki KOR/Ki MOR
Result: 120

Problem: Query (compound): NC(=O)C(Cc1ccccc1)NC(=O)C(Cc1ccccc1)C(O)/C=C\CC(O)C(N)Cc1ccc(O)cc1 (single isomer, unassigned) [(S,R,R,R)-9] ; field requested: Ki KOR/Ki MOR
Result: 15

Problem: Query (compound): NC(Cc1ccc(O)cc1)C(O)C/C=C/C(O)C(Cc1ccccc1)C(=O)NCCc1ccccc1 (single isomer, unassigned) [(S,S,S,R)-10] ; field requested: Ki KOR/Ki MOR
Result: 86
